Assay: phase I clinical plasma pharmacokinetics (noncompartmental); Reg 1: 3qw continuous; Reg 3: 3qw 2 weeks on/1 week off
Assay type: in vivo, human
Settings: human, plasma, oral, 150 mg, 150 mg Reg.1, Cycle 2 Day 1, n 4, Tlast=8h; read-out: AUClast, Mean (SD)
recorded metric: AUC(0-t) (ng·h/mL)
Respond with the bare value in ng·h/mL.

Fill in the blank: the reported AUC(0-t) of `COc1cc2c(cc1OC(C)C)[C@H](c1ccc(Cl)cc1)N(c1ccc(N(C)C[C@H]3CC[C@H](N4CCN(C)C(=O)C4)CC3)cc1)C(=O)C2` is ____.
18400

* * *

Test: phase I clinical plasma pharmacokinetics (noncompartmental); Reg 1: 3qw continuous; Reg 3: 3qw 2 weeks on/1 week off
Assay type: in vivo, human
Details: human, plasma, oral, 300 mg, 300 mg Reg.3, Cycle 1 Day 1, n 6, Tlast=24h; read-out: AUClast, Mean (SD)
recorded metric: AUC(0-t) (ng·h/mL)
Respond with the bare value in ng·h/mL.

Fill in the blank: the reported AUC(0-t) of `COc1cc2c(cc1OC(C)C)[C@H](c1ccc(Cl)cc1)N(c1ccc(N(C)C[C@H]3CC[C@H](N4CCN(C)C(=O)C4)CC3)cc1)C(=O)C2` is ____.
44300

* * *

Test: phase I clinical plasma pharmacokinetics (noncompartmental); Reg 1: 3qw continuous; Reg 3: 3qw 2 weeks on/1 week off
Format: in vivo, human
Details: human, plasma, oral, 300 mg, 300 mg Reg.3, Cycle 1 Day 12, n 6; read-out: AUClast, Mean (SD)
recorded metric: AUC(0-t) (µg·h/mL)
Respond with the bare value in µg·h/mL.

Fill in the blank: the reported AUC(0-t) of `COc1cc2c(cc1OC(C)C)[C@H](c1ccc(Cl)cc1)N(c1ccc(N(C)C[C@H]3CC[C@H](N4CCN(C)C(=O)C4)CC3)cc1)C(=O)C2` is ____.
166

* * *

Assay: phase I clinical plasma pharmacokinetics (noncompartmental); Reg 1: 3qw continuous; Reg 3: 3qw 2 weeks on/1 week off
Format: in vivo, human
Conditions: human, plasma, oral, 80 mg, 80 mg Reg.1, Cycle 1 Day 8, n 4; read-out: Cmax, Mean (SD)
recorded metric: Cmax (ng/mL)
Respond with the bare value in ng/mL.

Fill in the blank: the reported Cmax of `COc1cc2c(cc1OC(C)C)[C@H](c1ccc(Cl)cc1)N(c1ccc(N(C)C[C@H]3CC[C@H](N4CCN(C)C(=O)C4)CC3)cc1)C(=O)C2` is ____.
1990

* * *

Assay: phase I clinical plasma pharmacokinetics (noncompartmental); Reg 1: 3qw continuous; Reg 3: 3qw 2 weeks on/1 week off
Type: in vivo, human
Details: human, plasma, oral, 20 mg, 20 mg Reg.1, Cycle 1 Day 1, n 4, Tlast=24h; read-out: AUClast, Mean (SD)
Method: Antitumor efficacy was assessed using computerised tomography (CT)/magnetic resonance imaging assessment at baseline and every 8 weeks until disease progression or the initiation of subsequent antineoplastic therapy or death, whichever occurred first. In addition, the criteria for determining confirmed partial response (PR) or complete response (CR) were required to be present for at least 4 weeks. […]
recorded metric: AUC(0-t) (ng·h/mL)
Respond with the bare value in ng·h/mL.

Fill in the blank: the reported AUC(0-t) of `COc1cc2c(cc1OC(C)C)[C@H](c1ccc(Cl)cc1)N(c1ccc(N(C)C[C@H]3CC[C@H](N4CCN(C)C(=O)C4)CC3)cc1)C(=O)C2` is ____.
3640

Cited source for all entries: paper PMC8405607
